// provenance: paper PMC5720837

method.summary: In vitro metabolic stability, mouse S9
Format: in vitro ADME
assay.setup: S9 fraction
Label scheme, based on microsomal CLint: band A = under 3 µL/min/mg, band B = from 3 µL/min/mg up to 9 µL/min/mg, band C = 9 µL/min/mg and over

Which of the defined bands does the recorded microsomal CLint of Cc1c(C(=O)N[C@H](C(=O)OCc2ccc3ncccc3c2)C(C)C)ccc2c1B(O)OC2 sit within? band B

Which of the defined bands does the recorded microsomal CLint of CC(C)c1c(C(=O)N[C@H](C(=O)OCc2ccc(F)cc2)C(C)C)ccc2c1B(O)OC2 sit within? band C

Which of the defined bands does the recorded microsomal CLint of Cc1c(C(=O)N[C@H](C(=O)OCc2ccc(F)c(C(F)(F)F)c2)C(C)C)ccc2c1B(O)OC2 sit within? band C

Which of the defined bands does the recorded microsomal CLint of COC(=O)[C@@H](NC(=O)c1ccc2c(c1C)B(O)OC2)C(C)C sit within? band A

Which of the defined bands does the recorded microsomal CLint of CC(C)[C@H](NC(=O)c1ccc2c(c1F)B(O)OC2)C(=O)OCc1ccc(F)cc1 sit within? band A

Which of the defined bands does the recorded microsomal CLint of Cc1c(C(=O)N[C@H](C(=O)OCc2ccc(F)cc2)C(C)C)ccc2c1B(O)OC2 sit within? band B

Which of the defined bands does the recorded microsomal CLint of Cc1c(C(=O)N[C@H](C(=O)OCc2ccc(F)cn2)C(C)C)ccc2c1B(O)OC2 sit within? band B

Which of the defined bands does the recorded microsomal CLint of Cc1c(C(=O)N[C@H](C(=O)OCc2cc(F)c(F)c(F)c2)C(C)C)ccc2c1B(O)OC2 sit within? band C

Which of the defined bands does the recorded microsomal CLint of Cc1c(C(=O)N[C@H](C(=O)OCc2ccc(Cl)cc2)C(C)C)ccc2c1B(O)OC2 sit within? band C

Which of the defined bands does the recorded microsomal CLint of Cc1c(C(=O)N[C@H](C(=O)OCc2cccc(CN3CCN(C)CC3)c2)C(C)C)ccc2c1B(O)OC2 sit within? band A

Which of the defined bands does the recorded microsomal CLint of Cc1c(C(=O)N[C@H](C(=O)OCc2nccc(C(F)(F)F)n2)C(C)C)ccc2c1B(O)OC2 sit within? band A

Which of the defined bands does the recorded microsomal CLint of Cc1c(C(=O)N[C@H](C(=O)OCc2cccc(CN3CCOCC3)c2)C(C)C)ccc2c1B(O)OC2 sit within? band B

Which of the defined bands does the recorded microsomal CLint of Cc1c(C(=O)NC(C(=O)OCc2ccc(F)cc2)C(C)(C)F)ccc2c1B(O)OC2 (stereo not shown) sit within? band B

Which of the defined bands does the recorded microsomal CLint of Cc1c(C(=O)N[C@H](C(=O)OCC2CCCCC2)C(C)C)ccc2c1B(O)OC2 sit within? band C

Which of the defined bands does the recorded microsomal CLint of Cc1c(C(=O)NC2(C(=O)OCc3ccc(F)cc3)CC2)ccc2c1B(O)OC2 sit within? band A

Which of the defined bands does the recorded microsomal CLint of Cc1c(C(=O)N[C@H](C(=O)OCc2cccc(N3CCN(C)CC3)c2)C(C)C)ccc2c1B(O)OC2 sit within? band B

Which of the defined bands does the recorded microsomal CLint of Cc1c(C(=O)N[C@H](C(=O)OCc2cnc3ccccc3n2)C(C)C)ccc2c1B(O)OC2 sit within? band B

Which of the defined bands does the recorded microsomal CLint of Cc1c(C(=O)N[C@H](C(=O)OCc2ccc(S(C)(=O)=O)cc2)C(C)C)ccc2c1B(O)OC2 sit within? band A

Which of the defined bands does the recorded microsomal CLint of Cc1c(C(=O)N[C@H](C(=O)OCc2cccc(CN(C)C)c2)C(C)C)ccc2c1B(O)OC2 sit within? band A

Which of the defined bands does the recorded microsomal CLint of Cc1c(C(=O)N[C@H](C(=O)OCc2ccc(OCCN3CCCC3)cc2)C(C)C)ccc2c1B(O)OC2 sit within? band A

Which of the defined bands does the recorded microsomal CLint of CC(C)[C@H](NC(=O)c1ccc2c(c1C(F)F)B(O)OC2)C(=O)OCc1ccc(F)cc1 sit within? band A

Which of the defined bands does the recorded microsomal CLint of Cc1c(C(=O)N[C@H](C(=O)OCc2ncc3ccccc3n2)C(C)C)ccc2c1B(O)OC2 sit within? band B

Which of the defined bands does the recorded microsomal CLint of Cc1c(C(=O)N[C@H](C(=O)OCc2ccc(C(F)(F)F)nc2)C(C)C)ccc2c1B(O)OC2 sit within? band B

Which of the defined bands does the recorded microsomal CLint of Cc1c(C(=O)N[C@H](C(=O)OCc2ccc(F)cc2)C(C)(C)O)ccc2c1B(O)OC2 sit within? band A

Which of the defined bands does the recorded microsomal CLint of Cc1c(C(=O)N[C@H](C(=O)OCc2ccc(S(=O)(=O)N3CCN(C)CC3)cc2)C(C)C)ccc2c1B(O)OC2 sit within? band B

Which of the defined bands does the recorded microsomal CLint of Cc1c(C(=O)N[C@H](C(=O)OCC2CCOCC2)C(C)C)ccc2c1B(O)OC2 sit within? band A

Which of the defined bands does the recorded microsomal CLint of CCc1c(C(=O)N[C@H](C(=O)OCc2ccc(F)cc2)C(C)C)ccc2c1B(O)OC2 sit within? band C

Which of the defined bands does the recorded microsomal CLint of Cc1c(C(=O)N[C@H](C(=O)OCc2ccc(C(F)(F)F)cn2)C(C)C)ccc2c1B(O)OC2 sit within? band C

Which of the defined bands does the recorded microsomal CLint of Cc1c(C(=O)N[C@H](C(=O)OC2CCC(F)(F)CC2)C(C)C)ccc2c1B(O)OC2 sit within? band A

Which of the defined bands does the recorded microsomal CLint of Cc1c(C(=O)N[C@H](C(=O)OCc2cnccn2)C(C)C)ccc2c1B(O)OC2 sit within? band A

====

method.summary: In vitro metabolic stability, bovine S9
Type: in vitro ADME
assay.setup: S9 fraction
value.type: microsomal CLint (µL/min/mg)
Number in µL/min/mg, nothing else.

Find the recorded microsomal CLint belonging to Cc1c(C(=O)N[C@H](C(=O)OCc2cc(F)c(F)c(F)c2)C(C)C)ccc2c1B(O)OC2 [Compound 18] and report it. 3.1

Find the recorded microsomal CLint belonging to CCc1c(C(=O)N[C@H](C(=O)OCc2ccc(F)cc2)C(C)C)ccc2c1B(O)OC2 [Compound 24] and report it. 23

Find the recorded microsomal CLint belonging to Cc1c(C(=O)N[C@H](C(=O)OCc2ccc(S(C)(=O)=O)cc2)C(C)C)ccc2c1B(O)OC2 [Compound 19] and report it. 1.3

====

Would you mind telling me the reported microsomal CLint of each entry?
method.summary: In vitro metabolic stability, bovine S9
Type: in vitro ADME
assay.setup: S9 fraction
Number in µL/min/mg, nothing else.

Find the recorded microsomal CLint belonging to Cc1c(C(=O)N[C@H](C(=O)OCc2ccc(F)c(F)c2)C(C)C)ccc2c1B(O)OC2 and report it. 5.6

Find the recorded microsomal CLint belonging to Cc1c(C(=O)N[C@H](C(=O)OCC2CCOCC2)C(C)C)ccc2c1B(O)OC2 and report it. 1.5

Find the recorded microsomal CLint belonging to Cc1c(C(=O)N[C@H](C(=O)OCc2cccc(N3CCN(C)CC3)c2)C(C)C)ccc2c1B(O)OC2 and report it. 12.7

Find the recorded microsomal CLint belonging to Cc1c(C(=O)N[C@H](C(=O)OCC2CCCCC2)C(C)C)ccc2c1B(O)OC2 and report it. 20

Find the recorded microsomal CLint belonging to Cc1c(C(=O)N[C@H](C(=O)OCc2cccc(CN3CCN(C)CC3)c2)C(C)C)ccc2c1B(O)OC2 and report it. 6

Find the recorded microsomal CLint belonging to Cc1c(C(=O)N[C@H](C(=O)OCc2ccc(F)c(Cl)c2)C(C)C)ccc2c1B(O)OC2 and report it. 8.9

Find the recorded microsomal CLint belonging to Cc1c(C(=O)N[C@H](C(=O)OCc2ccc(C(F)(F)F)cn2)C(C)C)ccc2c1B(O)OC2 and report it. 4.8

Find the recorded microsomal CLint belonging to Cc1c(C(=O)N[C@H](C(=O)OCc2cnccn2)C(C)C)ccc2c1B(O)OC2 and report it. 3.9

Find the recorded microsomal CLint belonging to CC(C)[C@H](NC(=O)c1ccc2c(c1)B(O)OC2)C(=O)OCc1ccc(F)cc1 and report it. 1.3

Find the recorded microsomal CLint belonging to Cc1c(C(=O)N[C@H](C(=O)OCc2ccc(S(=O)(=O)N3CCN(C)CC3)cc2)C(C)C)ccc2c1B(O)OC2 and report it. 3.8

Find the recorded microsomal CLint belonging to Cc1c(C(=O)N[C@H](C(=O)OCc2ccc(F)cc2)C(C)C)ccc2c1B(O)OC2 and report it. 9.3

Find the recorded microsomal CLint belonging to Cc1c(C(=O)N[C@H](C(=O)OCc2ccc(Cl)cc2)C(C)C)ccc2c1B(O)OC2 and report it. 9.1

Find the recorded microsomal CLint belonging to CC(C)c1c(C(=O)N[C@H](C(=O)OCc2ccc(F)cc2)C(C)C)ccc2c1B(O)OC2 and report it. 32

Find the recorded microsomal CLint belonging to COC(=O)[C@@H](NC(=O)c1ccc2c(c1C)B(O)OC2)C(C)C and report it. 3.1

Find the recorded microsomal CLint belonging to Cc1c(C(=O)N[C@H](C(=O)OCc2ccc(F)cn2)C(C)C)ccc2c1B(O)OC2 and report it. 7.8

Find the recorded microsomal CLint belonging to Cc1c(C(=O)NC(C(=O)OCc2ccc(F)cc2)C(C)(C)F)ccc2c1B(O)OC2 (stereo not shown) and report it. 3.1
